Test: Preliminary cytotoxicity assay (WST-8 reduction, viability and morphological observations)
Assay type: cell-based, human
Conditions: human, Viability Mean (%)
Quantity measured: viability at 24 h, 60 µM (%)
Number only, in %; omit the unit.

Request: In one line, give reported viability at 24 h, 60 µM of the entry C[N+](C)(C)[C@@H](Cc1c[nH]c(=S)[nH]1)C(=O)[O-] [L-Ergothioneine] .
Response: 99

---

Assay: Preliminary cytotoxicity assay (WST-8 reduction, viability and morphological observations)
Format: cell-based, human
Conditions: human, Viability Mean (%)
Experimental: In the present study, the effects of compound L-Ergothioneine were investigated in normal human epidermal keratinocytes (NHEK) under basal or UV-irradiated conditions. More specifically, the effects of this compound were evaluated using RT-qPCR technology. Extracted mRNA was analyzed using a PCR array (“mQPA-8-Nrf2”) for the analysis of 8 target genes (including 1 housekeeping gene) selected for their role in Nrf2 pathway. […]
Quantity measured: viability at 24 h, 180 µM (%)
Numeric answer only, unit % assumed.

Request: Please look at this compound and report its viability at 24 h, 180 µM: C[N+](C)(C)[C@@H](Cc1c[nH]c(=S)[nH]1)C(=O)[O-]
Response: 97

---

Experiment: Preliminary cytotoxicity assay (WST-8 reduction, viability and morphological observations)
Format: cell-based, human
Conditions: human, normal human epidermal keratinocytes (NHEK), 180 μM, 24 hours of incubation; read-out: Viability Mean (%)
Quantity measured: viability at 24 h, 180 µM (%)
Respond with the bare value in %.

Request: Tell me its viability at 24 h, 180 µM given Oc1ccc(C=Cc2cc(O)cc(O)c2)cc1 as the entry.
Response: 31

---

Assay: Preliminary cytotoxicity assay (WST-8 reduction, viability and morphological observations)
Format: cell-based, human
Conditions: human, normal human epidermal keratinocytes (NHEK), 0.247 μM, 24 hours of incubation; read-out: Viability Mean (%)
Quantity measured: viability at 24 h, 0.247 µM (%)
Give the number; % is assumed, so skip it.

Request: Please indicate viability at 24 h, 0.247 µM recorded for Oc1ccc(C=Cc2cc(O)cc(O)c2)cc1
Response: 99

---

Experiment: Preliminary cytotoxicity assay (WST-8 reduction, viability and morphological observations)
Format: cell-based, human
Details: human, normal human epidermal keratinocytes (NHEK), single replicates, 6.7 μM, 24 hours; read-out: Viability (%)
Protocol: In the present study, the effects of compound L-Ergothioneine were investigated in normal human epidermal keratinocytes (NHEK) under basal or UV-irradiated conditions. More specifically, the effects of this compound were evaluated using RT-qPCR technology. Extracted mRNA was analyzed using a PCR array (“mQPA-8-Nrf2”) for the analysis of 8 target genes (including 1 housekeeping gene) selected for their role in Nrf2 pathway. […]
Quantity measured: viability at 24 h, 6.7 µM (%)
API: value field is a number in %; no unit string.

Request: In one line, give reported viability at 24 h, 6.7 µM of the entry Oc1ccc(C=Cc2cc(O)cc(O)c2)cc1 .
Response: 109

---

Test: Preliminary cytotoxicity assay (WST-8 reduction, viability and morphological observations)
Type: cell-based, human
Settings: human, Viability (%)
Description: In the present study, the effects of compound L-Ergothioneine were investigated in normal human epidermal keratinocytes (NHEK) under basal or UV-irradiated conditions. More specifically, the effects of this compound were evaluated using RT-qPCR technology. Extracted mRNA was analyzed using a PCR array (“mQPA-8-Nrf2”) for the analysis of 8 target genes (including 1 housekeeping gene) selected for their role in Nrf2 pathway. […]
Quantity measured: viability at 24 h, 180 µM (%)
Write the value in % as a bare number.

Request: Tell me measured viability at 24 h, 180 µM for C[N+](C)(C)[C@@H](Cc1c[nH]c(=S)[nH]1)C(=O)[O-] [L-Ergothioneine] please.
Response: 99

---

Test: Preliminary cytotoxicity assay (WST-8 reduction, viability and morphological observations)
Type: cell-based, human
Details: human, Viability Mean (%)
Protocol: In the present study, the effects of compound L-Ergothioneine were investigated in normal human epidermal keratinocytes (NHEK) under basal or UV-irradiated conditions. More specifically, the effects of this compound were evaluated using RT-qPCR technology. Extracted mRNA was analyzed using a PCR array (“mQPA-8-Nrf2”) for the analysis of 8 target genes (including 1 housekeeping gene) selected for their role in Nrf2 pathway. […]
Quantity measured: viability at 24 h, 4860 µM
For clarity, give the value followed by its unit.

Request: In one line, give reported viability at 24 h, 4860 µM of the entry C[N+](C)(C)[C@@H](Cc1c[nH]c(=S)[nH]1)C(=O)[O-] [L-Ergothioneine] .
Response: 83%

---

Assay: Preliminary cytotoxicity assay (WST-8 reduction, viability and morphological observations)
Format: cell-based, human
Conditions: human, normal human epidermal keratinocytes (NHEK), single replicates, 60 μM, 24 hours; read-out: Viability (%)
Quantity measured: viability at 24 h, 60 µM (%)
Could you give me the number in %? Just the number is fine.

Request: Give a short answer stating reported viability at 24 h, 60 µM for Oc1ccc(C=Cc2cc(O)cc(O)c2)cc1 .
Response: 65

---

Assay: Preliminary cytotoxicity assay (WST-8 reduction, viability and morphological observations)
Format: cell-based, human
Details: human, Viability Mean (%)
Quantity measured: viability at 24 h, 2.2 µM (%)
The answer is to be given in %; state only the numeric part.

Request: Supply recorded viability at 24 h, 2.2 µM for C[N+](C)(C)[C@@H](Cc1c[nH]c(=S)[nH]1)C(=O)[O-] here.
Response: 100

---

Experiment: Preliminary cytotoxicity assay (WST-8 reduction, viability and morphological observations)
Type: cell-based, human
Conditions: human, Viability (%)
Quantity measured: viability at 24 h, 1620 µM (%)
Unit % implied. Number only.

Request: In one line, give reported viability at 24 h, 1620 µM of the entry C[N+](C)(C)[C@@H](Cc1c[nH]c(=S)[nH]1)C(=O)[O-] [L-Ergothioneine] .
Response: 89

---

Test: Preliminary cytotoxicity assay (WST-8 reduction, viability and morphological observations)
Format: cell-based, human
Conditions: human, Viability (%)
Quantity measured: viability at 24 h, 20 µM
Record the result as number plus unit.

Request: Identify the reported viability at 24 h, 20 µM for the following entry. C[N+](C)(C)[C@@H](Cc1c[nH]c(=S)[nH]1)C(=O)[O-]
Response: 99%

---

Assay: Preliminary cytotoxicity assay (WST-8 reduction, viability and morphological observations)
Type: cell-based, human
Details: human, Viability Mean (%)
Quantity measured: viability at 24 h, 1620 µM (%)
Express the result in % but write the number alone.

Request: Answer with the recorded viability at 24 h, 1620 µM for the compound listed here: C[N+](C)(C)[C@@H](Cc1c[nH]c(=S)[nH]1)C(=O)[O-] [L-Ergothioneine]
Response: 92
